Target: bacterial thymidine phosphorylase (Escherichia coli)
Construct: purchased Sigma Chemical Co., St. Louis, MO
Sequence (P07650 whole entry): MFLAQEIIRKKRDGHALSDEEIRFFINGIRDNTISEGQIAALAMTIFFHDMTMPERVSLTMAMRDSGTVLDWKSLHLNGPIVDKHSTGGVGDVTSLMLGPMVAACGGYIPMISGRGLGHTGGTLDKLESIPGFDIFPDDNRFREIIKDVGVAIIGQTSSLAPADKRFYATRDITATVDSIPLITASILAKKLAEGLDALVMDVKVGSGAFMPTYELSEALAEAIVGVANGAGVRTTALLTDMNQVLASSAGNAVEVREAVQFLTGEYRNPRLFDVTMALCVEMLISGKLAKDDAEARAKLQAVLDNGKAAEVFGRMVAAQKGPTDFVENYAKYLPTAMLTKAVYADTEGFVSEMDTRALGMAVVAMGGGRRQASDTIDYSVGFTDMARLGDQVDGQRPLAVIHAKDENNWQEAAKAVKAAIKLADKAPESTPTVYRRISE
Test: Phosphorolytic cleavage by dThd phosphorylase
Assay type: biochemical
Conditions: 25°C, 0.1 M sodium phosphate buffer, pH 7.0; N.D. = not detectable with 25 units of enzyme
Entries annotated with measured Initial velocity of phosphorolysis

{"smilesString": "O=c1ccn([C@H]2C[C@H](F)[C@@H](CO)O2)c(=O)[nH]1", "testedSystem": "bacterial thymidine phosphorylase (Escherichia coli)", "unitName": "nmol/min/unit", "Initial velocity of phosphorolysis": 0.018}
{"smilesString": "CCc1cn([C@H]2C[C@H](O)[C@@H](CO)O2)c(=O)[nH]c1=O", "testedSystem": "bacterial thymidine phosphorylase (Escherichia coli)", "unitName": "nmol/min/unit", "Initial velocity of phosphorolysis": 0.893}
{"smilesString": "O=c1ccn([C@H]2C[C@H](O)[C@@H](CO)O2)c(=O)[nH]1", "testedSystem": "bacterial thymidine phosphorylase (Escherichia coli)", "unitName": "nmol/min/unit", "Initial velocity of phosphorolysis": 361}
{"smilesString": "O=c1ccn([C@H]2CC[C@@H](CO)O2)c(=O)[nH]1", "testedSystem": "bacterial thymidine phosphorylase (Escherichia coli)", "unitName": "nmol/min/unit", "Initial velocity of phosphorolysis": 0.270}

meta.source: patent EP0316592A2
